Target: GDP-bound KRAS wild-type protein (Homo sapiens, UniProt P01116)
Sequence (P01116 whole entry): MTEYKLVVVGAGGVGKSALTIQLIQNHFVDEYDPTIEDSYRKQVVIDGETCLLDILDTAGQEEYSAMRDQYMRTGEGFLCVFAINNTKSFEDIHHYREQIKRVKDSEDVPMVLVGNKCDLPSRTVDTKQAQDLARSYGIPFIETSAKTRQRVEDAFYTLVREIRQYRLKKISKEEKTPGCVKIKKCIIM
Test: Binding to KRAS by surface plasmon resonance (SPR), Single Cycle Kinetics
Details: SPR Single Cycle Kinetics, GDP-bound KRAS wild-type protein, 1:1 binding model; read-out: KRAS KD
Where a SMILES comes first, the peptide text is derived from it. Bridges are numbered along the chain shown (N, C = ends). [ ]: non-standard residue; d: D form. The star is where a group is joined. hPhe(3,5-F2-4-CF3) = N[C@@H](CCc1cc(F)c(C(F)(F)F)c(F)c1)C(=O)O; hPhe(3-Cl-4-CF3) = N[C@@H](CCc1ccc(C(F)(F)F)c(Cl)c1)C(=O)O; NPrPhe(4-CF3) = CCCN[C@@H](Cc1ccc(C(F)(F)F)cc1)C(=O)O; NMeGly(cPent) = CN[C@H](C(=O)O)C1CCCC1; Hyp = O=C(O)[C@@H]1C[C@@H](O)CN1; NMeD = CN[C@@H](CC(=O)O)C(=O)O; NMeL = CN[C@@H](CC(C)C)C(=O)O; αMeS = C[C@](N)(CO)C(=O)O; Morpholide = C1CN(*)CCO1; Aze = O=C(O)[C@@H]1CCN1; Ac4c = NC1(C(=O)O)CCC1; NEtG = CCNCC(=O)O; Sar = CNCC(=O)O; Allyl = C=CC*
measurementName: pKd
Here pKd is given on a logarithmic scale as minus log10 of the concentration in mol/L.

Below: 2 compounds and their reported pKd.
compound: C=CCOC[C@]1(C)NC(=O)[C@@H]2CCCN2C(=O)[C@H](CCc2cc(F)c(C(F)(F)F)c(F)c2)NC(=O)CN(C)C(=O)[C@H](Cc2ccc(C(F)(F)F)cc2)N(CCC)C(=O)[C@@H]2CCN2C(=O)CN(C)C(=O)[C@H]([C@@H](C)CC)NC(=O)[C@H](CC(C)C)N(C)C(=O)C[C@@H](C(=O)N2CCOCC2)N(C)C(=O)[C@H](C2CCCC2)N(C)C1=O [PP0799] ([NMeL]I[Sar][Aze][NPrPhe(4-CF3)][Sar][hPhe(3,5-F2-4-CF3)]P[αMeS](Allyl)[NMeGly(cPent)][NMeD]-Morpholide; lactam N-11)
target: GDP-bound KRAS wild-type protein (Homo sapiens, UniProt P01116)
pKd: 8.82
//
compound: CCCN1C(=O)CN(C)C(=O)CN(CC)C(=O)[C@H]([C@@H](C)CC)NC(=O)[C@H](CC(C)C)N(C)C(=O)C[C@@H](C(=O)N(C)C)N(C)C(=O)[C@H](C2CCCC2)N(C)C(=O)C2(CCC2)NC(=O)[C@@H]2C[C@@H](OCC)CN2C(=O)[C@H](CCc2ccc(C(F)(F)F)c(Cl)c2)NC(=O)CN(C)C(=O)[C@@H]1Cc1ccc(C(F)(F)F)cc1 [PP0428] ([NMeL]I[NEtG][Sar][NPrPhe(4-CF3)][Sar][hPhe(3-Cl-4-CF3)][Hyp](Et)[Ac4c][NMeGly(cPent)][NMeD]-NMe2; lactam N-11)
target: GDP-bound KRAS wild-type protein (Homo sapiens, UniProt P01116)
pKd: 10.20

# ---- query compound ----
Q: Given the entry CC[C@H](C)[C@@H]1NC(=O)[C@H](CC(C)C)N(C)C(=O)C[C@@H](C(=O)N2CCOCC2)N(C)C(=O)[C@H](CC(F)(F)F)N(C)C(=O)C2(CCCC2)NC(=O)[C@@H]2CCCN2C(=O)[C@H](CCc2cc(F)c(C(F)(F)F)c(F)c2)NC(=O)CN(C)C(=O)[C@H](Cc2ccc(C(F)(F)F)cc2)N2CCCC[C@@H](C2=O)N(C)C(=O)CN(C)C1=O , what pKd was observed with GDP-bound KRAS wild-type protein (Homo sapiens, UniProt P01116)?
Ans: 8.96
